tested on: 349418-098-R-PDC complex spheroid viability; experiment: Anticancer human tumor 349418-098-R-PDC patient-derived lung adenocarcinoma cell line growth inhibition [RAS]; conditions: second compound 0.000949 µM; first compound 0.00949 µM; active compounds read low
Result type: viability, T/C (%)
Express your answer in %, writing the number without its unit.

Worked cases, answers included:
CCc1c2c(nc3ccc(O)cc13)-c1cc3c(c(=O)n1C2)COC(=O)[C@]3(O)CC + CCn1c(-c2cccnc2C(C)OC)c2c3cc(ccc31)N1CCOC(CC(NC(=O)C(C(C)C)N(C)C(=O)C3(F)CCN(C(=O)C#CC(C)(C)N(C)C)CC3)C(=O)N3CCCC(N3)C(=O)OCC(C)(C)C2)C1 ... 10.9
CC1(C)CCC(Nc2ncc(C(F)(F)F)c(-c3c[nH]c4c(P(C)(C)=O)c(C#N)ccc34)n2)CN1 (centres undefined) + CCn1c(-c2cccnc2C(C)OC)c2c3cc(ccc31)N1CCOC(CC(NC(=O)C(C(C)C)N(C)C(=O)C3(F)CCN(C(=O)C#CC(C)(C)N(C)C)CC3)C(=O)N3CCCC(N3)C(=O)OCC(C)(C)C2)C1 ... 10.7
CCc1c2c(nc3ccc(O)cc13)-c1cc3c(c(=O)n1C2)COC(=O)[C@]3(O)CC + CCn1c(-c2cc(N3CCN(C)CC3)cnc2C(C)OC)c2c3cc(ccc31)-c1csc(n1)CC(NC(=O)C1CC1C)C(=O)N1CCCC(N1)C(=O)OCC(C)(C)C2 ... 12.3

// next item, viability, T/C requested
Record CC1(C)CCC(Nc2ncc(C(F)(F)F)c(-c3c[nH]c4c(P(C)(C)=O)c(C#N)ccc34)n2)CN1 (centres undefined) + CCn1c(-c2cc(N3CCN(C)CC3)cnc2C(C)OC)c2c3cc(ccc31)-c1csc(n1)CC(NC(=O)C1CC1C)C(=O)N1CCCC(N1)C(=O)OCC(C)(C)C2 / 349418-098-R-PDC complex spheroid viability, viability, T/C recorded as 13.3

---

Quick reference: viability, T/C of the listed items.
test system: 349418-098-R-PDC complex spheroid viability; assay: Anticancer human tumor 349418-098-R-PDC cell line growth inhibition [RAS]; details: second compound 0.00949 µM; first compound 10 µM; active compounds read low;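 note: spheroids exposed to compound for seven days before viability readout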
Express your answer in %, writing the number without its unit.

Worked cases, answers included:
CC(C)NCC(C(=O)N1CCN(c2ncnc3c2C(C)CC3O)CC1)c1ccc(Cl)cc1 (centres undefined) + CCn1c(-c2cccnc2C(C)OC)c2c3cc(ccc31)N1CCOC(CC(NC(=O)C(C(C)C)N(C)C(=O)C3(F)CCN(C(=O)C#CC(C)(C)N(C)C)CC3)C(=O)N3CCCC(N3)C(=O)OCC(C)(C)C2)C1 ... 8.77
CC(=O)OC12COC1CC(O)C1(C)C(=O)C(O)C3=C(C)C(OC(=O)C(O)C(NC(=O)OC(C)(C)C)c4ccccc4)CC(O)(C(OC(=O)c4ccccc4)C21)C3(C)C (centres undefined) + CCn1c(-c2cccnc2C(C)OC)c2c3cc(ccc31)N1CCOC(CC(NC(=O)C(C(C)C)N(C)C(=O)C3(F)CCN(C(=O)C#CC(C)(C)N(C)C)CC3)C(=O)N3CCCC(N3)C(=O)OCC(C)(C)C2)C1 ... 15.9
CC(Nc1ccc2c(c1)OCCn1cc(N3C(=O)OCC3C(F)F)nc1-2)C(N)=O (centres undefined) + CCn1c(-c2cc(N3CCN(C)CC3)cnc2C(C)OC)c2c3cc(ccc31)-c1csc(n1)CC(NC(=O)C1CC1C)C(=O)N1CCCC(N1)C(=O)OCC(C)(C)C2 ... 14

For reference, reported viability, T/C for NC1c2ccccc2OC12CCN(c1cnc3c(N4CCCc5ncccc54)n[nH]c3n1)CC2 (centres undefined) + CCn1c(-c2cccnc2C(C)OC)c2c3cc(ccc31)N1CCOC(CC(NC(=O)C(C(C)C)N(C)C(=O)C3(F)CCN(C(=O)C#CC(C)(C)N(C)C)CC3)C(=O)N3CCCC(N3)C(=O)OCC(C)(C)C2)C1 stands at 59.8

---

test system: 349418-098-R-PDC complex spheroid viability; test: Anticancer human tumor 349418-098-R-PDC cell line growth inhibition [RAS]; conditions: second compound 1 µM; first compound 0.1 µM; active compounds read low;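 note: spheroids exposed to compound for seven days before viability readout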
Quick reference: viability, T/C of the listed items.
Express your answer in %, writing the number without its unit.

Worked cases, answers included:
Cc1nc(N2CCC3(CC2)COC(C)C3N)c(CO)nc1Sc1ccnc(N)c1Cl (stereo not drawn) + C#Cc1c(F)ccc2cc(O)cc(-c3ncc4c(N5CC6CCC(C5)N6)nc(OCC56CCCN5CC(F)C6)nc4c3F)c12 ... 94.6
Nc1ccn(C2OC(CO)C(O)C2(F)F)c(=O)n1 (stereo not drawn) + C=CC(=O)N1CCN(c2nc(OCC3CCCN3C)nc3c(F)c(-c4nc(N)cc(C)c4C(F)(F)F)c(Cl)cc23)C(C)C1 ... 6.96

// next item, viability, T/C requested
For reference, reported viability, T/C for CC1(O)CCCC1n1c(=O)c(C(F)F)cc2cnc(NC3CCN(S(C)(=O)=O)CC3)nc21 (stereo not drawn) + C#Cc1c(F)ccc2cc(O)cc(-c3ncc4c(N5CC6CCC(C5)N6)nc(OCC56CCCN5CC(F)C6)nc4c3F)c12 stands at 35.9

---

Quick reference: viability, T/C of the listed items.
tested on: 349418-098-R-PDC complex spheroid viability; assay: Anticancer human tumor 349418-098-R-PDC cell line growth inhibition [RAS]; conditions: second compound 0.0949 µM; first compound 0.00316 µM; active compounds read low;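 note: spheroids exposed to compound for seven days before viability readout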
Express your answer in %, writing the number without its unit.

C=CC(=O)N1CCN(c2nc(OCC3CCCN3C)nc3c(F)c(-c4nc(N)cc(C)c4C(F)(F)F)c(Cl)cc23)C(C)C1 (stereo unspecified) + CCn1c(-c2cc(N3CCN(C)CC3)cnc2C(C)OC)c2c3cc(ccc31)-c1csc(n1)CC(NC(=O)C1CC1C)C(=O)N1CCCC(N1)C(=O)OCC(C)(C)C2 ... 92.5
O=C(c1ccc(F)c(F)c1Nc1ccc(I)cc1F)N1CC(O)([C@@H]2CCCCN2)C1 + CCn1c(-c2cccnc2C(C)OC)c2c3cc(ccc31)N1CCOC(CC(NC(=O)C(C(C)C)N(C)C(=O)C3(F)CCN(C(=O)C#CC(C)(C)N(C)C)CC3)C(=O)N3CCCC(N3)C(=O)OCC(C)(C)C2)C1 ... 27.1
CCN1CCN(Cc2ccc(Nc3ncc(F)c(-c4cc(F)c5nc(C)n(C(C)C)c5c4)n3)nc2)CC1 + CCn1c(-c2cccnc2C(C)OC)c2c3cc(ccc31)N1CCOC(CC(NC(=O)C(C(C)C)N(C)C(=O)C3(F)CCN(C(=O)C#CC(C)(C)N(C)C)CC3)C(=O)N3CCCC(N3)C(=O)OCC(C)(C)C2)C1 ... 73.4
Nc1ccn(C2OC(CO)C(O)C2(F)F)c(=O)n1 (stereo unspecified) + CCn1c(-c2cccnc2C(C)OC)c2c3cc(ccc31)N1CCOC(CC(NC(=O)C(C(C)C)N(C)C(=O)C3(F)CCN(C(=O)C#CC(C)(C)N(C)C)CC3)C(=O)N3CCCC(N3)C(=O)OCC(C)(C)C2)C1 ... 19.9
O=C(c1ccc(F)c(F)c1Nc1ccc(I)cc1F)N1CC(O)([C@@H]2CCCCN2)C1 + CCn1c(-c2cc(N3CCN(C)CC3)cnc2C(C)OC)c2c3cc(ccc31)-c1csc(n1)CC(NC(=O)C1CC1C)C(=O)N1CCCC(N1)C(=O)OCC(C)(C)C2 ... 9.09

// next item, viability, T/C requested
For reference, reported viability, T/C for Nc1ccn(C2OC(CO)C(O)C2(F)F)c(=O)n1 (stereo unspecified) + CCn1c(-c2cc(N3CCN(C)CC3)cnc2C(C)OC)c2c3cc(ccc31)-c1csc(n1)CC(NC(=O)C1CC1C)C(=O)N1CCCC(N1)C(=O)OCC(C)(C)C2 stands at 43.2

---

test system: 349418-098-R-PDC complex spheroid viability; assay: Anticancer human tumor 349418-098-R-PDC cell line growth inhibition [RAS]; conditions: second compound 0.003 µM; first compound 0.1 µM; active = viability on the fitted dose curve at most 10% of control; inactive = the rest;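 note: spheroids exposed to compound for seven days before viability readout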
Please answer using one outcome listed in Yes (active), No (inactive)

CC1(O)CCCC1n1c(=O)c(C(F)F)cc2cnc(NC3CCN(S(C)(=O)=O)CC3)nc21 (configuration not stated) + CCn1c(-c2cc(N3CCN(C)CC3)cnc2C(C)OC)c2c3cc(ccc31)-c1csc(n1)CC(NC(=O)C1CC1C)C(=O)N1CCCC(N1)C(=O)OCC(C)(C)C2 ... No
NC1c2ccccc2OC12CCN(c1cnc3c(N4CCCc5ncccc54)n[nH]c3n1)CC2 (configuration not stated) + CCn1c(-c2cc(N3CCN(C)CC3)cnc2C(C)OC)c2c3cc(ccc31)-c1csc(n1)CC(NC(=O)C1CC1C)C(=O)N1CCCC(N1)C(=O)OCC(C)(C)C2 ... No
Nc1ccn(C2OC(CO)C(O)C2(F)F)c(=O)n1 (configuration not stated) + CCn1c(-c2cccnc2C(C)OC)c2c3cc(ccc31)N1CCOC(CC(NC(=O)C(C(C)C)N(C)C(=O)C3(F)CCN(C(=O)C#CC(C)(C)N(C)C)CC3)C(=O)N3CCCC(N3)C(=O)OCC(C)(C)C2)C1 ... Yes
CC(C)NCC(C(=O)N1CCN(c2ncnc3c2C(C)CC3O)CC1)c1ccc(Cl)cc1 (configuration not stated) + CCn1c(-c2cc(N3CCN(C)CC3)cnc2C(C)OC)c2c3cc(ccc31)-c1csc(n1)CC(NC(=O)C1CC1C)C(=O)N1CCCC(N1)C(=O)OCC(C)(C)C2 ... No
C=CC(=O)N1CCN(c2nc(OCC3CCCN3C)nc3c(F)c(-c4nc(N)cc(C)c4C(F)(F)F)c(Cl)cc23)C(C)C1 (configuration not stated) + CCn1c(-c2cccnc2C(C)OC)c2c3cc(ccc31)N1CCOC(CC(NC(=O)C(C(C)C)N(C)C(=O)C3(F)CCN(C(=O)C#CC(C)(C)N(C)C)CC3)C(=O)N3CCCC(N3)C(=O)OCC(C)(C)C2)C1 ... No
C[C@@H](NC(=O)c1ncnc(N)c1Cl)c1ncc(C(=O)Nc2cc(C(F)(F)F)c(Cl)cn2)s1 + CCn1c(-c2cccnc2C(C)OC)c2c3cc(ccc31)N1CCOC(CC(NC(=O)C(C(C)C)N(C)C(=O)C3(F)CCN(C(=O)C#CC(C)(C)N(C)C)CC3)C(=O)N3CCCC(N3)C(=O)OCC(C)(C)C2)C1 ... No

Input line: Which outcome was assigned to CC(=O)OC12COC1CC(O)C1(C)C(=O)C(O)C3=C(C)C(OC(=O)C(O)C(NC(=O)OC(C)(C)C)c4ccccc4)CC(O)(C(OC(=O)c4ccccc4)C21)C3(C)C (configuration not stated) + CCn1c(-c2cccnc2C(C)OC)c2c3cc(ccc31)N1CCOC(CC(NC(=O)C(C(C)C)N(C)C(=O)C3(F)CCN(C(=O)C#CC(C)(C)N(C)C)CC3)C(=O)N3CCCC(N3)C(=O)OCC(C)(C)C2)C1 in this test?
Output line: No
